Target Or System: T1, VGAGIGFPAYDG peptide substrate
T1 chain: VGAGIGFPAYDG
Measured Metric: Unprocessed ion count (%) (M + H = 1123)

Protein	Measured Result
PatGmacΔ1 (deletion of residues 578-608, the helix-loop-helix insertion motif) (protein) GEDEIESAGVSASEVESSATKQKVALHPHDLDERIPGLADLHNQTLGDPQITIVIIDGDPDYTLSCFEGAEVSKVFPYWHEPAEPITKDRIVLNDHACHVTSTIVGQEHSPVFGIAPNCRVINMPQDAVIRGNYDDVMSPLNLARAIDLALELGANIIHCAFCRPTQTSEGEEILVQAIKKCQDNNVLIVSPTGNNSNESWCLPAVLPGTLAVGAAKVDGTPCHFSNWGGNNTKEGILAPGEEILGAQPCTEEPVRLTGTSMAAPVMTGISALLMSLQVQQGKPVDAEAVRTALLKTAIPCDPEVVEEPERCLRGFVNIPGAMKVLFGQ	8
